experimentalReadout: melting point

Cc1cc2c(c(C)c1NC(=O)NC(C)(C)C)C(c1ccc(C(C)C)cc1)CO2 (single isomer, unassigned; (+)); 205 to 206 °C

The molecule listed as CCCCCCCCCCCCCCCCOCC(CF)COC(c1ccccc1)(c1ccccc1)c1ccccc1 (stereo not given) has a reported melting point of 32 °C

The molecule listed as OCc1cc2ccc3c4ccccc4ccc3c2s1 has a reported melting point of 169 to 170 °C

The molecule listed as C=C(C)C(=O)Nc1ccc(C(=O)O)c(O)c1 has a reported melting point of 220 to 222 °C

The molecule listed as COC(=O)c1ccc(OCCCOc2cc3c(cc2O)CCO3)cc1 has a reported melting point of 133 to 135 °C

The molecule listed as COC(=O)[C@@]1(O)C[C@@H](OC(=O)c2ccccc2)[C@@H]2OC(C)(C)O[C@@H]2C1 has a reported melting point of 109 to 110 °C

###

experimentalReadout: melting point

Worked cases, melting point given:
NCCOC(c1ccccc1)(c1ccccc1)c1ccccc1; 87 to 89 °C
Cc1cc(C#N)cc(C)c1OCCCCCc1cc(CO)no1; 63 to 64 °C

The compound listed as COc1ccc(CCCC2(Br)C(=O)NC(=O)NC2=O)cc1 has a reported melting point of 113 to 114 °C

The compound listed as N#CCOc1ccccc1S(N)(=O)=O has a reported melting point of 184 to 185 °C

The compound listed as CCC(CC)Sc1cc(S(N)(=O)=O)c(N)cc1Cl has a reported melting point of 118 to 120 °C

The compound listed as COc1nnc2n1C=Cc1ccccc1C2 has a reported melting point of 160 to 161 °C

###

molecules and their reported melting point

Worked cases, melting point given:
CCCCC(=O)Nc1c(C)c(C)c2c(c1C)C(c1ccc(C(C)C)cc1)CO2 (stereo not given); 128 to 129 °C
CCCCn1c(Cc2cc(OC)ccc2Cl)nc2c(N)ncnc21; 138 to 139 °C
CN1c2ccc(Cl)cc2C(c2ccccc2)=Nc2cccnc21; 153 to 156 °C
O=C(/C=C/c1ccc(F)cc1)N1CCN2C(=O)OC(c3ccccc3)(c3ccccc3)C2C1 (stereo not given); 250 to 251 °C
CCCCS(=O)(=O)NCC1CCN(C(=O)OCc2ccccc2)CC1; 83 to 85 °C

The molecule listed as O=C(O)CN1C(=O)C(=CC=Cc2cccc(-c3ccccc3)c2)SC1=S has a reported melting point of 232 to 237 °C

The molecule listed as CCOc1ccn2nc(S(=O)(=O)Cl)nc2n1 has a reported melting point of 91 to 96 °C

The molecule listed as COC(=O)c1ccc(Cc2cn(C)c3ccc([N+](=O)[O-])cc23)c(OC)c1 has a reported melting point of 144 to 146 °C

The molecule listed as Cc1ccc(C(=O)NCCc2ccccn2)c(Nc2ccc3[nH]ncc3c2)n1 has a reported melting point of 98 to 99 °C

The molecule listed as Cc1cn(C2CC(N=[N+]=[N-])C(CO)O2)c(=O)nc1N (stereo not given) has a reported melting point of 85 to 88 °C

###

compounds and their reported melting point

CC(C)CCCC(C)C1CCC2C3CC=C4CC(OS(C)(=O)=O)CCC4(C)C3CCC12C (centres undefined); 119 to 120 °C
COc1cc(NC(=O)N(Cc2ccccc2)C2CCCCC2)c(OC(C)=O)c(C(C)(C)C)c1; 129 to 132 °C
Cc1ccc(S(=O)(=O)N2CCCC2c2nnnn2[C@@](C)(Cc2ccc([N+](=O)[O-])cc2)C(=O)O)cc1 (some centres undefined); 150 to 160 °C
CCCCc1nc(Cl)c(C=O)n1Cc1ccc2oc(-c3ccccc3-c3nnn[nH]3)c(Br)c2c1; 122 to 124 °C
Cc1nc(-n2cc(Cc3ccccc3)nn2)sc1C(=O)NCc1ccccc1; 139 to 141 °C

The compound listed as COc1ccc(OC)c2c1C(=O)C=C(SCCCCCCCCCCC(=O)O)C2=O has a reported melting point of 146 to 147 °C

The compound listed as CCCC(=O)Nc1n[nH]c2c(F)c(N3CCOCC3)c(Br)cc12 has a reported melting point of 240 °C

The compound listed as CCOCCn1c(N2CCCN(CCC3(c4ccccc4)CCN(C(=O)c4cc(NC(C)=O)ccc4OC)C3)CC2)nc2ccccc21 (centres undefined) has a reported melting point of 145 to 150 °C

The compound listed as CC(C)(Cc1ccc(OCCCC(=O)O)cc1)NCC(O)c1cc(O)cc2c1OCC(=O)N2 (centres undefined) has a reported melting point of 201 to 204 °C
